Here the recorded pIC50 is given for each entry.
- TARGET_OF_ASSAY: pERK1/2 (Thr202/Tyr204), NCI-1H358 (KRAS G12C) (Homo sapiens, UniProt P01116, G12C)
- Construct: pERK1/2 HTRF read-out
- Sequence (P01116 1-188 isoform P01116-2 G12C): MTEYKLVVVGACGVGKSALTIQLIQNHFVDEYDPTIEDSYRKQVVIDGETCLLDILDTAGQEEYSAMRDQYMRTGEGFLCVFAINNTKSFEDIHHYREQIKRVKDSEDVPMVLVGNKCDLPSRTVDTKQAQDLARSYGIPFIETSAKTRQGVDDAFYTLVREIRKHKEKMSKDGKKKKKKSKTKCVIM
- ASSAY_SUMMARY: Assay of intracellular pERK1/2 (Thr202/Tyr204) phosphorylation in NCI-H358 cells (KRAS G12C)
- Assay type: cell-based
- SETTINGS: pERK1/2, 2 days, read-out: NCI-H358 (KRAS G12C) IC50
FYI, pIC50 means -log10 of a concentration in mol per litre.

[[record]]
molecule = "Cc1cc(N)nc(-c2nc3c4c(nc(OC[C@@]56CCCN5C[C@H](F)C6)nc4c2F)N(C(C)c2cccnc2N)[C@@H](C)CO3)c1C(F)(F)F (stereo partly drawn)"
measured_endpoint = "pIC50"
result = 9.00

[[record]]
molecule = "CC(c1cccnc1N)N1CCOc2nc(-c3cc(O)cc(F)c3C3CC3)c(F)c3nc(OC[C@@H]4CCCN4C)nc1c23 (single isomer, unassigned) [Compound 35]"
measured_endpoint = "pIC50"
result = 7.74

[[record]]
molecule = "CC(c1cccnc1N)N1CCOc2nc(-c3cc(N)cc(Cl)c3C(F)(F)F)c(F)c3nc(OC[C@@H]4CCCN4C)nc1c23 (single isomer, unassigned) [Compound 99]"
measured_endpoint = "pIC50"
result = 7.57


Alright, here's another molecule for you.
[in] Looking for the measured pIC50 of C#Cc1ccc2[nH]ncc2c1-c1nc2c3c(nc(OC[C@@]45CCCN4C[C@H](F)C5)nc3c1F)N(C(C)c1cccnc1N)CCO2 (stereo partly drawn) , can you help?
[out] 6.29

* * *

- TARGET_OF_ASSAY: pERK1/2 (Thr202/Tyr204), NCI-1H358 (KRAS G12C) (Homo sapiens, UniProt P01116, G12C)
- Construct: pERK1/2 HTRF read-out
- ASSAY_SUMMARY: Assay of intracellular pERK1/2 (Thr202/Tyr204) phosphorylation in NCI-H358 cells (KRAS G12C)
- Assay type: cell-based
- SETTINGS: pERK1/2, 2 days, read-out: NCI-H358 (KRAS G12C) IC50
MEASURED_ENDPOINT: IC50 (nM)
Lab book: enter the figure in nM, no units written.

// known answers, use as guide
[[record]]
compound = "CCc1c(F)ccc2cc(O)cc(-c3nc4c5c(nc(OC[C@@]67CCCN6C[C@H](F)C7)nc5c3F)N(C(C)c3cccnc3NC(=O)[C@H](C)N)[C@@H](C)CO4)c12 (some centres unmarked)"
reading_unit = "nM"
result = 0.6

[[record]]
compound = "CC(c1cccnc1N)N1c2nc(OC[C@@H]3C[C@@H](F)CN3C)nc3c(F)c(-c4cc(O)cc5ccc(F)c(F)c45)nc(c23)OC[C@@H]1C (some centres unmarked)"
reading_unit = "nM"
result = 0.2

[[record]]
compound = "CC(c1cccnc1N)N1CCOc2nc(-c3cc(N)c(F)cc3C(F)(F)F)c(F)c3nc(OC[C@@]45CCCN4C[C@H](F)C5)nc1c23 (single isomer, unassigned) [Compound 145]"
reading_unit = "nM"
result = 14

[[record]]
compound = "C#Cc1c(F)ccc2cc(O)cc(-c3nc4c5c(nc(OC[C@@H]6C[C@@H](F)CN6C)nc5c3F)N(C(C)c3cccnc3N)[C@@H](C)CO4)c12 (single isomer, unassigned) [Compound 285]"
reading_unit = "nM"
result = 27


Alright, here's another compound for you.
[in] Looking for the measured IC50 of [2H][C@]1(F)CN2CCC[C@@]2(COc2nc3c4c(nc(-c5cc(N)c(F)c(C)c5C(F)(F)F)c(F)c4n2)OCCN3C(C)c2cccnc2N)C1 (single isomer, unassigned) , can you help?
[out] 0.2
